measured.on: T1, wild type (WT) GPIIb/IIIa ectodomain (heterodimer of SEQ ID NOs: 1 and 3) (human, UniProt P08514 32-993; P05106 27-716)
T1 construct: Recombinant purified ectodomain; also called GP2b3a; integrin αIIbβ3
measurement.description: apparent monovalent affinity for GP2b3a (SEQ ID: 1 and 3); BLI or SPR, the method of each row is not given
property.name: pKd
Conceptually, pKd converts a concentration in mol/L into minus its log10.

Given BIIB-4-175 (Fab, V domains shown, Tested as Fab made from yeast-expressed, protein A-purified antibody; Only VH and VL are tied to the clone) VH: EVQLVESGGGLVQPGGSLRLSCAASGFTFSDHHMDWVRQAPGKGLEWVGRTRNKANSYTTEYAASVKGRFTISRDDSKNSLYLQMNSLKTEDTAVYYCARGPPYYADLGMGVWGQGTTVTVSS VL: EIVMTQSPATLSVSPGERATLSCRASQSVSSNLAWYQQKPGQAPRLLIYGASTRATGIPARFSGSGSGTEFTLTISSLQSEDFAVYYCQQFNLYPYTFGGGTKVEIK , state its recorded pKd. 7.82
